The origin of these recorded values is a melting point compilation (Tetko et al.; mined from patent text by program, amines drawn as free bases though some values may be those of a salt).

Below, each entry is listed with its recorded melting point.

Worked set:
CCCCOCCOc1ccc(-c2ccc3c(c2)C=C(C(=O)Nc2ccc([C@H](O)c4ccccn4)cc2)CCN3S(C)(=O)=O)cc1 = 158 to 160 °C
O=C1CCCN1S(=O)(=O)c1ccc(N2CCOCC2)cc1 = 120 to 122 °C
CC(=O)N(O)Cc1cccc([N+](=O)[O-])c1 = 80 °C
COc1cc2c(c(C(C)C)c1OC)C(=O)NS2(=O)=O = 186 to 188 °C
Clc1cccc2c(CN3CC=C(CCc4ccccc4)CC3)n[nH]c12 = 171 to 172 °C
COc1cc(C)nc(NC(=O)NS(=O)(=O)c2ccccc2C2=CCCC2)n1 = 235 to 236 °C

I'd like to know its melting point. The molecule in question is CCCCCCCC[C@H](N[C@@H](C)C(=O)O)C(=O)OCC
127 to 128 °C

###

Below, each entry is listed with its recorded melting point.

Worked set:
CCCOC(=O)Nc1nc(=O)n(C2OC(C)C(O)C2O)cc1F (stereo not given) = 125 to 126 °C
CC(=O)NCCC1CCc2c(Cl)cc3nn(C)cc3c21 (stereo not given) = 143 to 144 °C

I'd like to know its melting point. The compound in question is O=C1NC(=S)NC1=Cc1cc(O)c(O)c(Cl)c1
303 to 304 °C

Now give it for COC(=O)c1cc2nc(C)n(C)c2cc1C(=O)OC too.
147 to 148 °C

Now give it for COc1ccc2c(C)cccc2c1C(F)(F)F too.
70 to 71 °C

###

Assay Readout: melting point

Worked set:
CCOC(=N)c1ccc(-c2nc3c(s2)NCCCC3)cc1 = 141 to 143 °C
Cc1c(-c2cc(Cl)cc(Cl)c2)ccc(N)c1C#N = 182 °C
CCN(C)c1nc(-c2ccc(OC)cc2)nc2sc(C#N)c(C)c12 = 122 to 123 °C
Cc1cc(OCCN(C)C)ccc1NC(=O)c1ccc(N2CCNCC2)cc1 = 139 to 141 °C
COC(=O)c1ccc(C=O)c2ccccc12 = 95 to 96 °C

I'd like to know its melting point. The compound in question is NS(=O)(=O)Oc1cc(Cl)cc(Cl)c1
146 to 147 °C

Now give it for CCOc1ccc(-c2cc(C(F)(F)F)n3ncc(-c4cccnc4)c3n2)cc1C(F)(F)F too.
178 °C

Now give it for COc1ccnc(CCc2nc3cc(-c4ccc(C#N)cc4)cnc3[nH]2)c1 too.
241 to 242 °C

###

Below, each entry is listed with its recorded melting point.

CCOC=Cc1nc2c(=O)n(Cc3ccccc3)cnc2n1Cc1ccccc1 = 167 to 168 °C
O=C(NC(CO)(CO)CO)c1ccc(C(=O)NC(CO)(CO)CO)cc1 = 188 to 190 °C
CCn1cnc2c(N)nc(Cl)nc21 = 258 to 262 °C
CCOC(=O)CCC(=O)c1ccc(Cl)cc1O = 68 to 69 °C
N[C@H]1CC[C@@H](Oc2ccc3[nH]ncc3c2)CC1 = 144 to 146 °C

I'd like to know its melting point. The compound in question is Cc1cccc(NC(=O)NCC(=O)N(CC(=O)N(c2ccccc2)C(C)C)c2ccccc2)c1
170 °C

Now give it for C=C(C)CC(O)(C(Nc1ccc(F)c2nc(C)ncc12)c1ccc(Cl)cc1OC)C(F)(F)F (centres undefined) too.
110 °C

Now give it for O=c1c2ccccc2sc2ccc(O)cc12 too.
232 to 241 °C

###

Below, each entry is listed with its recorded melting point.

Worked set:
CCCC1=C(C#N)C(c2cccc(C(F)(F)F)c2Cl)c2c[nH]nc2N1 (stereo not given) = > 250 °C
CCOCCOc1c(C)cc(Oc2ccc3c(c2)C=C(C(=O)O)CCS3(=O)=O)cc1C = 149 to 153 °C
Cc1cc2[nH]c(=O)c(C(=O)O)nc2cc1-n1ccc(CNC(=O)Nc2ccc(C(=O)O)cc2)c1 = > 300 °C
COc1nc(-n2cc(C(=O)O)c(=O)c3cc(F)c(F)c(Cl)c32)c(F)cc1F = 205 to 210 °C
CN(C1CCN(CC(C)(C)O)CC1)S(=O)(=O)c1ccc(Nc2nccc(Nc3ccc(F)cc3)n2)cc1 = 216 to 217 °C
CCC(=S)C1=C(C)NC2=C(C(=O)c3ccccc32)C1c1ccccc1[N+](=O)[O-] (stereo not given) = 221 °C
O=C(N[C@H]1CC[C@H](CCN2CCC(c3cccc4c3CCO4)CC2)CC1)C1(O)CC1 = 164 °C
O=C(O)c1ccc(C(=O)C=Cc2ccccc2)cc1 = 217 to 220 °C

I'd like to know its melting point. The molecule in question is CCCCOC(=O)Cc1ccc(CNS(=O)(=O)c2ccccc2)cc1
60.5 to 61 °C

Now give it for O=CC=C[C@@H]1O[C@H]1C#CC#CC#Cc1ccccc1 (relative stereo) too.
91 to 92.5 °C

Now give it for O=C(c1cc2cccc(NS(=O)(=O)c3cccs3)c2[nH]1)N(Cc1ccccc1)Cc1ccccc1 too.
198 to 199 °C

Now give it for COc1ccc(C2=C(C#N)C(c3ccccc3OC)c3c[nH]nc3N2)cc1 (stereo not given) too.
149 °C

Now give it for CCOC(=O)Cc1sc(Sc2nc(C)ccc2C(=O)OCC)nc1C too.
95 to 97 °C

Now give it for COc1ccc(COCCC(C(=O)O)c2ccccc2)cc1 (stereo not given) too.
114 to 115 °C

###

Assay Readout: melting point

CC(C)(C)OC(=O)N[C@@H](Cc1ccccc1)[C@H](O)CNC1(c2cccc(C(F)(F)F)c2)CC1 = 124 °C
O=S(=O)(CCCCl)Nc1ccccc1OCc1ccc2ccccc2n1 = 100 to 101 °C
O=c1c2cc(Cl)ccc2nc(CSc2ncnc3[nH]cnc23)n1-c1ccccc1Cl = 237 to 238 °C

I'd like to know its melting point. The compound in question is CSCOc1ccc2c(c1)CCC1C2CCC2(C)C(=O)CCC12 (stereo unspecified)
65 °C

Now give it for O=C(OCCCCCCCCCCCCCCCCOc1ccc(-c2cccc(F)c2F)cc1)C(CCCCCCO)CCCCCCO too.
45.2 to 48.8 °C

Now give it for O=C(CCn1cnc2c(=O)[nH]cnc21)NC(Cc1ccccc1)C(=O)O (stereo unspecified) too.
240 to 242 °C

Now give it for O=C(O)CCc1cc(Cl)cc2nc(-c3ccccc3Cl)oc12 too.
152 to 154 °C

Now give it for N#Cc1ccc2[nH]cc(C3CCC(=O)C3)c2c1 (stereo unspecified) too.
136 to 138 °C

Now give it for CCOC(=O)C(=O)Nc1cc(C)ccc1[N+](=O)[O-] too.
114 °C

Now give it for CCOC(=NC(=O)C1CC1)N1Cc2ccccc2-c2ccccc2C1 too.
97 to 99 °C

Now give it for CCOC(=O)CNc1ncccc1NC(=O)c1ccc(Cl)cc1 too.
133 to 134 °C

Now give it for CC(C)(C)OC(=O)[C@H]1CCCN1 too.
51.5 to 53.2 °C

Now give it for FC(F)c1cc(-c2cccc(C(F)(F)F)c2)nc2c(I)cnn12 too.
130 °C

Now give it for O=c1[nH]c(=Cc2ccc(OCc3ccccc3)cn2)c(=O)[nH]c1=Cc1ccccc1 too.
223 to 225 °C

Now give it for O=C(Cl)c1ccc(OC(=O)c2cccc(C(=O)Oc3ccc(C(=O)Cl)cc3)c2)cc1 too.
204 °C

Now give it for CC1(C)OC(c2ccc(S(C)(=O)=O)cc2)=C(c2cc3ccccc3s2)C1=O too.
204 to 206 °C

Now give it for O=Cc1ccc2c(c1)C1(c3ccccc3-2)c2ccccc2-c2ccc(C=O)cc21 too.
> 300 °C

Now give it for CC(=O)Nc1c(Cl)cc(Br)c(C)c1Cl too.
173 to 174 °C

Now give it for O=C1NN=C(c2ccc(NC(=O)C3(Cl)CC3)cc2)C2CC12 (stereo unspecified) too.
221 to 222 °C

Now give it for N#CCc1cccc2c(-c3ccc(Cl)cc3)nccc12 too.
132 °C

Now give it for O=S(=O)(c1ccccc1)N(CCCN1CC=C(c2ccccc2)CC1)c1ccccc1 too.
112 °C

Now give it for CC(O)CC(=O)NCCN (stereo unspecified) too.
71 to 73 °C

Now give it for CCOC(=O)CCN(CCCCCCN(CCC(=O)OCC)C1CC(C)(C)NC(C)(C)C1)C1CC(C)(C)NC(C)(C)C1 too.
58 to 60 °C

Now give it for O=C(O)C(Oc1ccc(Cl)cc1)c1ccc(Oc2ccc(Cl)cc2)cc1 (stereo unspecified) too.
141 to 142 °C

Now give it for COCCN1CCn2c1nc(C(=O)NCc1ccc(F)cc1)c(OCc1ccccc1)c2=O too.
150 °C

Now give it for CCOC(=O)c1c(C(F)(F)F)nc(C(F)F)c(C(=O)OC)c1C1CO1 (stereo unspecified) too.
57.5 to 59 °C
